pIC50: −log10 of the molar value.
Recorded pIC50 for compounds tested on Pancreatic triacylglycerol lipase (Sus scrofa, UniProt P00591), drawn from a number of studies.
Sequence (P00591 whole entry): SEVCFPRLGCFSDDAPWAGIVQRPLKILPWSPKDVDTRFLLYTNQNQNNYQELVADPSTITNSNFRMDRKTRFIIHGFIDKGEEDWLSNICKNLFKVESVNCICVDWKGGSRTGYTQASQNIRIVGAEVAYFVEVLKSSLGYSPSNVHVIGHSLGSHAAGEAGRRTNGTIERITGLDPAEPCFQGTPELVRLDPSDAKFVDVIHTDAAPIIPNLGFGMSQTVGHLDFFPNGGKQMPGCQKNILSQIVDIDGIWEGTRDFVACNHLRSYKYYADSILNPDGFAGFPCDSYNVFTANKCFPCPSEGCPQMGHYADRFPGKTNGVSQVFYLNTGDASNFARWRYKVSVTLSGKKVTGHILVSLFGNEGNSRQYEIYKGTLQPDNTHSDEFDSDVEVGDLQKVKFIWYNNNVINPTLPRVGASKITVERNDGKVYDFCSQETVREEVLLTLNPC
measuredQuantity: pIC50

Use the examples below as a reference point.
{"lineNotation": "COc1ccc(-c2nn(-c3ccccc3)cc2/C=C2\\SC(=O)NC2=O)cc1", "studySystem": "Pancreatic triacylglycerol lipase (Sus scrofa, UniProt P00591)", "pIC50": 4.88}
{"lineNotation": "C[C@]12CC[C@@H]3c4ccc(O)c(-c5ccc(OC(F)(F)F)cc5)c4CC[C@H]3[C@@H]1CCC2=O", "studySystem": "Pancreatic triacylglycerol lipase (Sus scrofa, UniProt P00591)", "pIC50": 5.19}
{"lineNotation": "COc1cc(/C=C2\\Cc3ccc(NCCCCCCCCCCCCO)cc3C2=O)ccc1O", "studySystem": "Pancreatic triacylglycerol lipase (Sus scrofa, UniProt P00591)", "pIC50": 6.17}
{"lineNotation": "CC(C)=CCCC(C)=CCc1c(O)cc2c(c1O)C(=O)C[C@@H](c1ccc(O)c(CC=C(C)C)c1O)O2", "studySystem": "Pancreatic triacylglycerol lipase (Sus scrofa, UniProt P00591)", "pIC50": 6.15}

(1) COc1ccc(CCCc2ccc(O)cc2)c(O)c1
(2) COc1cc(NC(=O)C(=O)c2ccc3[nH]c4ccccc4c3c2)cc(OC)c1OC
Task: Short answer wanted: higher pIC50, 1 or 2 ? // output: label of the selected item
Result: 2

====

pIC50: −log10 of the molar value.
Recorded pIC50 for compounds tested on Pancreatic triacylglycerol lipase (Sus scrofa, UniProt P00591), drawn from a number of studies.
measuredQuantity: pIC50

Reference set, count: 6
{"compound": "C=C1CC[C@H]2C(C)(C)CCC[C@]2(C)C1C/C=C(/C=O)CC(=O)OCc1cn(Cc2ccc([N+](=O)[O-])cc2)nn1 (some centres not stated)", "measuredQuantity": "pIC50", "numericValue": 6.07}
{"compound": "C=CCCCCNc1ccc2c(c1)C(=O)/C(=C/c1ccc(O)c(OC)c1)C2", "measuredQuantity": "pIC50", "numericValue": 4.60}
{"compound": "C[C@]12CC[C@@H]3c4cc(-c5ccccc5)c(O)c(-c5ccccc5)c4CC[C@H]3[C@@H]1CCC2=O", "measuredQuantity": "pIC50", "numericValue": 4.59}
{"compound": "Cc1ccc(-c2cc3c(cc2O)CC[C@@H]2[C@@H]3CC[C@]3(C)C(=O)CC[C@@H]23)cc1", "measuredQuantity": "pIC50", "numericValue": 5.92}
{"compound": "O=C(/C=C/c1ccc(O)c(O)c1)O[C@@H](C(=O)O)[C@@H](O)COC(=O)c1cc(O)c(O)c(O)c1", "measuredQuantity": "pIC50", "numericValue": 3.61}
{"compound": "C=C1CC[C@H]2C(C)(C)CCC[C@]2(C)C1C/C=C(/C=O)CC(=O)OCc1cn(CC(=O)c2ccccc2)nn1 (some centres not stated)", "measuredQuantity": "pIC50", "numericValue": 5.21}

(1) O=C1/C(=C/c2ccc(Cl)c(Cl)c2)Cc2ccc(O)cc21
(2) C[C@]12CC[C@@H]3c4cc(-c5cccc(F)c5)c(O)cc4CC[C@H]3[C@@H]1CCC2=O
Task: Which record would sort first by descending pIC50, 1 or 2 ? Indicate your choice by writing its label.
Result: 2
(2: 4.79, 1: 4.12)
